Data origin, for the record: patent US20110015393A1

Target: Mammalian PARP, isolated from Hela cell nuclear extract (Homo sapiens)
Construct: isolated from Hela cell nuclear extract; endogenous in cells
Sequence (P09874 whole entry): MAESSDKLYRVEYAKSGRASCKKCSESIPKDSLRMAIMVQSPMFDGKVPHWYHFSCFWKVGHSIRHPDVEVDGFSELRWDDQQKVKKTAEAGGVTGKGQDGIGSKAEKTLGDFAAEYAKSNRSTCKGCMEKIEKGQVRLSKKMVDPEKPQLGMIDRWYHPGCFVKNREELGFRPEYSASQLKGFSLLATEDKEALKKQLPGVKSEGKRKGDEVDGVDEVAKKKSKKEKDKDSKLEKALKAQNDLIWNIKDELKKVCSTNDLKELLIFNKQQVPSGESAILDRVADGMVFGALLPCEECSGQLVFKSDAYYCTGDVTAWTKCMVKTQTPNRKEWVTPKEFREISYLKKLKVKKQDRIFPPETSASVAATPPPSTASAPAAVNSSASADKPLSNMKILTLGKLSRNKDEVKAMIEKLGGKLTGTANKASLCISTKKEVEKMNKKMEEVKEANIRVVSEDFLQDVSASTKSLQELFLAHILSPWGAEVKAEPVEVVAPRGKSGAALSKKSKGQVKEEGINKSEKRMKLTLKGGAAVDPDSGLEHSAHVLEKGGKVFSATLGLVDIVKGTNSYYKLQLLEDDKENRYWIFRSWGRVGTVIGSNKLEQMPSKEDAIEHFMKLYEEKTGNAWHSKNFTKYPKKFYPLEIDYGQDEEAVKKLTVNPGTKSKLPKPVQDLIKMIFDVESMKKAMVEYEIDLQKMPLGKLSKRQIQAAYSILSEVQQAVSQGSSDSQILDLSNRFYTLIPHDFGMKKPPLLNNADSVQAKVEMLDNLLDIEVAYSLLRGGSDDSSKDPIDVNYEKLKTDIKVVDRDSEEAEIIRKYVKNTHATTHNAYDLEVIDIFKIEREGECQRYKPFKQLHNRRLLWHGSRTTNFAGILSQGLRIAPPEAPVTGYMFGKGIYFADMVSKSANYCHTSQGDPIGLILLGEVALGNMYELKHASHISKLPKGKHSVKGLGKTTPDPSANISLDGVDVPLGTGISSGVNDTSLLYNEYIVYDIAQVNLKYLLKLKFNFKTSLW
Assay: PARP inhibition assay (FlashPlate, 3H-NAD incorporation)
Details: PARP enzyme activity; NAD 5 μM, 30° C., 45 minutes
pIC50: −log10 of the molar value.
measurement_kind: pIC50

Task item: Supply recorded pIC50 for COC1CCN(C(=O)c2cc(Cc3n[nH]c(=O)c4ccccc34)ccc2F)CC1 [Compound 1] here.
Reply: ~8.30
